GI50 reference
Test system: NCI-H460
assay.remarks: NCI tumour cell line growth inhibition, 48 h
The source made the active and inactive calls. No stated cut-off is given here; in the data, active = GI50 up to about 1.1 µM and inactive = higher.
measure.name: GI50

[[record]]
compound = "COc1ccc(/C=C/C(C(=O)O)C(=O)O)cc1"
result = "> 100 µM (inactive)"

[[record]]
compound = "Cn1c(O)c(C(=O)Nc2cccs2)c(=O)[nH]c1=S"
result = "19.4 µM (inactive)"

[[record]]
compound = "COc1cc(-c2nn3c(=O)n(-c4ccc(Cl)cc4)c(=O)nc3s2)cc(OC)c1OC"
result = "> 100 µM (inactive)"

[[record]]
compound = "COc1cc([N+](=O)[O-])ccc1NC(=O)c1cccc([N+](=O)[O-])c1O"
result = "27.7 µM (inactive)"

[[record]]
compound = "COc1ccc(NC(=O)C2C(=O)N(c3ccc(OC)cc3)C(=O)/C2=N/O)cc1 (stereo unspecified)"
result = "21.9 µM (inactive)"

[[record]]
compound = "O=P(O)(O)CN1CCNCCN(CP(=O)(O)O)CC1"
result = "11.3 µM (inactive)"

[[record]]
compound = "CN1C(=O)C(CC=O)(C(C)(C)C)c2ccccc21 (stereo unspecified)"
result = "> 100 µM (inactive)"

[[record]]
compound = "O=C(O)Cn1nnc2c(=O)[nH][nH]c(=O)c21"
result = "> 100 µM (inactive)"

[[record]]
compound = "Cc1cc(C)n2c(-c3ccccc3)c(C)cc2n1"
result = "37.3 µM (inactive)"

[[record]]
compound = "CCN(CC)C(=O)N1CCN(C=S)CC1"
result = "> 100 µM (inactive)"

[[record]]
compound = "COc1ccc(-c2oc(/C=N/c3ccccc3)c([N+](=O)[O-])c2-c2ccc(OC)c(OC)c2)cc1OC"
result = "> 100 µM (inactive)"


----------
Tested on: K562
assay.remarks: NCI tumour cell line growth inhibition, 48 h
Calls of active or inactive are those of the source. Cut-off read from the data, not from the text of the source: active = GI50 up to about 1.1 µM and inactive = higher.
measure.name: GI50

[[record]]
compound = "C=C1CC(CN2CCC(=O)NC2=O)(c2ccccc2)OC1=O (stereo not given)"
result = "2.39 µM (inactive)"

[[record]]
compound = "C[C@@H]1CC[C@]2(C(=O)O)CC[C@]3(C)C(=CC[C@@H]4[C@@]5(C)CC[C@H](O)C(C)(C)[C@@H]5CC[C@]43C)[C@@H]2[C@]1(C)O [POMOLIC ACID]"
result = "6.49 µM (inactive)"

[[record]]
compound = "COc1ccc(C2=C(OC(=O)N(C)C)c3cccn3-c3cc(C(F)(F)F)ccc3S2)cc1"
result = "> 10 µM (inactive)"

[[record]]
compound = "CC1OC(OC2C(OC(=O)[C@]34CCC(C)(C)C[C@H]3C3=CC[C@@H]5[C@@]6(C)CC[C@H](OC7OC(C(=O)O)C(O)C(O)C7O)C(C)(C)[C@@H]6CC[C@@]5(C)[C@]3(C)C[C@H]4O)OCC(O)C2O)C(O)C(OC2OCC(O)(CO)C2O)C1OC1OCC(O)C(O)C1O (stereo not given in full)"
result = "10.3 µM (inactive)"

[[record]]
compound = "Cc1cc(C)n2c(-c3ccccc3)c(C)cc2n1"
result = "8.17 µM (inactive)"

[[record]]
compound = "O=S1(=O)NC2CCC3NS(=O)(=O)NC4CCC(N1)N4S(=O)(=O)N23 (stereo not given)"
result = "> 100 µM (inactive)"

[[record]]
compound = "CCOC(=O)C(C(=O)OCC)C1C=CCC2c3ccccc3COCC21 (stereo not given)"
result = "41.9 µM (inactive)"

[[record]]
compound = "CC(=O)/C(=N\\O)C(=O)NCc1ccccc1"
result = "36.4 µM (inactive)"

[[record]]
compound = "CC(C)(C)c1cc2c(c(C(C)(C)C)c1O)CC(=O)O2"
result = "34 µM (inactive)"

[[record]]
compound = "OCCNCO"
result = "> 100 µM (inactive)"

[[record]]
compound = "N#Cc1ccc2oc3ccc(C#N)cc3c(=O)c2c1"
result = "31.3 µM (inactive)"

[[record]]
compound = "COc1ccccc1N/C(=C\\C(=O)C(=O)NC12CC3CC(CC(C3)C1)C2)c1ccccc1"
result = "> 10 µM (inactive)"

[[record]]
compound = "CN1CCN(CCn2c3c4ccccc4ccc3c3oc(=O)c4ccccc4c32)CC1"
result = "1.44 µM (inactive)"

[[record]]
compound = "O=C1/C(=C\\c2ccc([N+](=O)[O-])cc2)N(S(=O)(=O)c2ccccc2)c2ncccc21"
result = "3.55 µM (inactive)"

[[record]]
compound = "C[Si]12OCCCN(CCO1)CCO2"
result = "> 100 µM (inactive)"

[[record]]
compound = "Cc1cc2cc3ccccc3cc2c(=O)[nH]1"
result = "> 10 µM (inactive)"

[[record]]
compound = "CC(C)(/N=N/C(C)(C)C(=N)N)C(=N)N"
result = "> 100 µM (inactive)"

[[record]]
compound = "CCCCCCCCCCCCc1ccsc1-c1ccc(-c2ccc(-c3sc(-c4cc(CCCCCCCCCCCC)c(-c5ccc(-c6ccc(-c7sccc7CCCCCCCCCCCC)s6)s5)s4)cc3CCCCCCCCCCCC)s2)s1"
result = "> 100 µM (inactive)"

[[record]]
compound = "OC1=C2c3ccccc3NC2Oc2cc(F)ccc21 (stereo not given)"
result = "15.6 µM (inactive)"

[[record]]
compound = "COCCOCOc1ccc(OCc2ccccc2)cc1"
result = "64.9 µM (inactive)"

